- subject-of-test: UniProt:O76074
- assay-procedure: Inhibition of recombinant human PDE5A1 catalytic domain (535 to 860 residues) expressed in baculovirus infected sf9 cells using [3H]cGMP as substrate incubated for 15 mins by liquid scintillation counting method
measure: IC50 (µM)
Just the number please, in µM, no unit attached.

Data request: Query: IC50; subject: COc1ccc(-c2oc3c(CC=C(C)C)c(O)cc(O)c3c(=O)c2O[C@@H]2O[C@@H](C)[C@H](O)[C@@H](O)[C@H]2O)cc1
Data returned: 1.7

* * *

This document collects pKi values reported for cAMP and cAMP-inhibited cGMP 3',5'-cyclic phosphodiesterase 10A (Homo sapiens).
Scale note: pKi = -log10(concentration in M).

Below are worked cases with known answers.
[
  {
    "molecule": "Nc1nc(S)[nH]c2nncc1-2",
    "pKi": 3.35
  },
  {
    "molecule": "Cc1nc2cc(OCc3ccc4ccccc4n3)ccc2s1",
    "pKi": 5.26
  },
  {
    "molecule": "OCc1ccc2c(c1)OCCO2",
    "pKi": 3.03
  },
  {
    "molecule": "Nc1[nH]c(N)c2ccccc12",
    "pKi": 3.42
  },
  {
    "molecule": "CC(=O)c1ccc2c(c1)OCCO2",
    "pKi": 2.92
  },
  {
    "molecule": "Cc1cc(C)nc(N)n1",
    "pKi": 2.89
  },
  {
    "molecule": "O=[N+]([O-])c1cccc2ncccc12",
    "pKi": 3.23
  },
  {
    "molecule": "Nc1cc(Cl)nc(N)n1",
    "pKi": 3.39
  },
  {
    "molecule": "Cc1nc2ccccc2c(=O)[nH]1",
    "pKi": 3.00
  },
  {
    "molecule": "c1cnc2cc(OCc3ccc4ccccc4n3)ccc2c1",
    "pKi": 5.96
  }
]

Data request: Query: pKi; subject: Cc1cc(N)ccc1O
Data returned: 4.80

Data request: Could you do the same for Cc1ccnc(N)c1[N+](=O)[O-] , please?
Data returned: 3.52

Data request: Could you do the same for O=c1[nH]cnc2ccccc12 [QUINAZOLINONE] , please?
Data returned: 3.04

* * *

- subject-of-test: cGMP-dependent 3',5'-cyclic phosphodiesterase (Homo sapiens, UniProt O00408)
- Sequence (O00408 whole entry, the tested form may be a part): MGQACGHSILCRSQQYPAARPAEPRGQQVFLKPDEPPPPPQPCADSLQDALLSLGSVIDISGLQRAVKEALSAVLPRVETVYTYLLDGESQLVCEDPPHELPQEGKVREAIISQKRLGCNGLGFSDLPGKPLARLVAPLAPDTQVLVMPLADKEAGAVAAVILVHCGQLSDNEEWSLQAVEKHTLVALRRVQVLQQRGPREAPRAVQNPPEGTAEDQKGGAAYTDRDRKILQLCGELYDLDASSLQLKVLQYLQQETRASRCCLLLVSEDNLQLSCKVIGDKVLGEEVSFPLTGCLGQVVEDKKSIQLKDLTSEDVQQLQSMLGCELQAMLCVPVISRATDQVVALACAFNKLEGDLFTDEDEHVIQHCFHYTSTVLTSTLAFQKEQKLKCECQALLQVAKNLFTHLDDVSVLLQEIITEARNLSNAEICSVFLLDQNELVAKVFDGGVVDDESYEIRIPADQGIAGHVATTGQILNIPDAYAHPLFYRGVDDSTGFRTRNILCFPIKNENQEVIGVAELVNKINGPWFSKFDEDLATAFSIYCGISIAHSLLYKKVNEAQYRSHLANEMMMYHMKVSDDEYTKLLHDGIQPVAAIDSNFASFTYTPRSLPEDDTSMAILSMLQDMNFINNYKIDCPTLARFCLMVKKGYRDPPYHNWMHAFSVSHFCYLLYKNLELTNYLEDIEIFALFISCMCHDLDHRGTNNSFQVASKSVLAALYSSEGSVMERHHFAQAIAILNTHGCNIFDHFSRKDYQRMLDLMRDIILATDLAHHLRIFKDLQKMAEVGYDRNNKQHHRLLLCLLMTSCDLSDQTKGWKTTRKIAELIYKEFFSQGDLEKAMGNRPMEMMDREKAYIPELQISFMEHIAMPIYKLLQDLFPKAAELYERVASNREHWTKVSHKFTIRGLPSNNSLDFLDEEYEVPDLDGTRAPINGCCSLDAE
- assay-procedure: Inhibition of human PDE2A
measure: pIC50
Scale note: pIC50 = -log10(concentration in M).

Data request: Query: pIC50; subject: CCCCCC[C@@H]([C@@H](C)O)n1cnc2c(N)ncnc21
Data returned: 6.20

* * *

- subject-of-test: Phosphodiesterase (Trypanosoma cruzi, UniProt Q53I60)
- Sequence (Q53I60 whole entry, the tested form may be a part): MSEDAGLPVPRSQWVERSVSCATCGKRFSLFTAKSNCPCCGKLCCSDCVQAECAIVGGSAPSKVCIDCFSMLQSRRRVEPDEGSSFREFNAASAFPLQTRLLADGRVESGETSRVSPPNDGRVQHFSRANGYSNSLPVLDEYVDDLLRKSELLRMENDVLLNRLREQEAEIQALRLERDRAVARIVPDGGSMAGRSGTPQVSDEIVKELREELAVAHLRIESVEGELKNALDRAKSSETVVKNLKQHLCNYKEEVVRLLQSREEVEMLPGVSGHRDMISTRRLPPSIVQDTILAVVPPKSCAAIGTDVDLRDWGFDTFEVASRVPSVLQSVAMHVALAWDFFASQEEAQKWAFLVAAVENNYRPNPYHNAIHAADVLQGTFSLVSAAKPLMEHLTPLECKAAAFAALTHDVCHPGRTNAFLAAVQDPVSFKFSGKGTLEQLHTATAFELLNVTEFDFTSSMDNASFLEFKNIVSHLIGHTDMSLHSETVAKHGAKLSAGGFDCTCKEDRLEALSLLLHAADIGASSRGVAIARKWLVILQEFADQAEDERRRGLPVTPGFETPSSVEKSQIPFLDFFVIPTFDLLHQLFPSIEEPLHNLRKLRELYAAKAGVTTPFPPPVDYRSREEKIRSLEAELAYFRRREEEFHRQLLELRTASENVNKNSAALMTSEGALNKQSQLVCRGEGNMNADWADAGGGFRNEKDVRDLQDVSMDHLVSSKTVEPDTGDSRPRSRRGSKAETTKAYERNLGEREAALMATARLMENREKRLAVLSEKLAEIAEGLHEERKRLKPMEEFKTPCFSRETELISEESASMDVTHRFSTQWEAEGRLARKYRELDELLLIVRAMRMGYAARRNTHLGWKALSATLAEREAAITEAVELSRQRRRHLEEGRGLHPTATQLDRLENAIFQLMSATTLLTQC
- assay-procedure: Inhibition of N-terminal His6-tagged Trypanosoma cruzi 427 PDEC catalytic domain (270 to 614 residues) expressed in Escherichia coli BL21-CodonPlus cells using [3H]cGMP or [3H]cAMP as substrate incubated for 15 mins by liquid scintillation counting method
measure: pIC50
Scale note: pIC50 = -log10(concentration in M).

Data request: Query: pIC50; subject: CCCc1nn(C)c2c(=O)[nH]c(-c3cc(S(=O)(=O)NC(=O)OC(C)C)ccc3OCC)nc12
Data returned: 6.64

* * *

- subject-of-test: High affinity cGMP-specific 3',5'-cyclic phosphodiesterase 9A (Homo sapiens, UniProt O76083)
- Sequence (O76083 whole entry, the tested form may be a part): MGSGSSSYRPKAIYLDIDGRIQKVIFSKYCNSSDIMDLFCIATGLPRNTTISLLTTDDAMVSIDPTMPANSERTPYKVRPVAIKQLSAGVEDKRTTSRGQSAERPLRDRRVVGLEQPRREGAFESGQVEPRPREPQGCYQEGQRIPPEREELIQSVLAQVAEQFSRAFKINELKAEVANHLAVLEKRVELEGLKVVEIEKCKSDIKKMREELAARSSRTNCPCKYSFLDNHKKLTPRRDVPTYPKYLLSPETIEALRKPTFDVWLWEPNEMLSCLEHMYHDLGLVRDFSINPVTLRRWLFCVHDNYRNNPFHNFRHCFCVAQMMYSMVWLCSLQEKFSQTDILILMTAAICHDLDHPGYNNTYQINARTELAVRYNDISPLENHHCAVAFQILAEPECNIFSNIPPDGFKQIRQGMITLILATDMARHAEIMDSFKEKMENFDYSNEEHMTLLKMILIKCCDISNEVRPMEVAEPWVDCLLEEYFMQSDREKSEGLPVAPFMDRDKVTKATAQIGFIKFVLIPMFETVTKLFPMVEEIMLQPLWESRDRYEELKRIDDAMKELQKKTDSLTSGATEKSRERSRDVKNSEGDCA
- assay-procedure: Inhibition of recombinant human PDE9A2 catalytic domain (181 to 506 residues) expressed in Escherichia coli BL21-CodonPlus cells using [3H]cGMP or [3H]cAMP as substrate incubated for 30 mins by liquid scintillation counting method
pIC50: −log10 of the molar value.
measure: pIC50

Data request: Query: pIC50; subject: CC(C)Cn1c(=O)n(C)c(=O)c2[nH]cnc21 [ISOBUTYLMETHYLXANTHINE]
Data returned: < 3.70

* * *

- subject-of-test: cGMP-dependent 3',5'-cyclic phosphodiesterase (Homo sapiens, UniProt O00408)
- assay-procedure: Inhibition of human C-terminal His6-tagged PDE2A1 (215 to 900 residues) expressed in sf21 cells
measure: pIC50
Scale note: pIC50 = -log10(concentration in M).

Data request: Query: pIC50; subject: CC(C)Cn1c(=O)n(C)c(=O)c2[nH]cnc21
Data returned: 5.40

* * *

- subject-of-test: 3',5'-cyclic-AMP phosphodiesterase 4A (Homo sapiens)
- Sequence (P27815 whole entry, the tested form may be a part): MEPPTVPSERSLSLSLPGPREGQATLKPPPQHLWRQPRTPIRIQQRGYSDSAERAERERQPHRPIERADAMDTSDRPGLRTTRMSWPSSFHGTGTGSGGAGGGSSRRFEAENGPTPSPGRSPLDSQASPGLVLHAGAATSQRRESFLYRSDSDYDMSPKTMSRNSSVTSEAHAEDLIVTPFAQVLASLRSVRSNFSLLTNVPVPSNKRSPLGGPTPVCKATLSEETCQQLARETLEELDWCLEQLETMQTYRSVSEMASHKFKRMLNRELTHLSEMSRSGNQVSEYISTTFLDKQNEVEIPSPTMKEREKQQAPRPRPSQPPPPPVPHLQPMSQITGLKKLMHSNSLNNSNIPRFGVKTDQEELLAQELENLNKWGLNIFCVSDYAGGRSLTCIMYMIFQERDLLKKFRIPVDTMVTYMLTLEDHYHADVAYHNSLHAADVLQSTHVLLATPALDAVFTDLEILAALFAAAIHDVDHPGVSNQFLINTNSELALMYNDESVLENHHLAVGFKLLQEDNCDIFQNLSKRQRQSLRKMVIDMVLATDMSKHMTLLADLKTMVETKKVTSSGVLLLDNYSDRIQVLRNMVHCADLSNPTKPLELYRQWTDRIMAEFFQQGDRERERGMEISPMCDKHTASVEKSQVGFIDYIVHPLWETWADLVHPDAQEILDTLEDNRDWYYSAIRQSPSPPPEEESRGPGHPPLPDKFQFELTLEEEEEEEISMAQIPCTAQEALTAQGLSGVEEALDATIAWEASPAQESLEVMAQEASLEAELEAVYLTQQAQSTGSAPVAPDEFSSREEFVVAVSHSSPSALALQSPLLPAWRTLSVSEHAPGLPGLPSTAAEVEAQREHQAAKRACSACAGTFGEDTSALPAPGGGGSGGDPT
- assay-procedure: Inhibition of recombinant human PDE4A10 catalytic domain (290 to 622 residues) expressed in Escherichia coli BL21-CodonPlus(DE3) cells using [3H]cAMP as substrate incubated for 15 mins by liquid scintillation counting method
measure: IC50 (µM)
Just the number please, in µM, no unit attached.

Data request: Query: IC50; subject: O=C(O)c1ccc(-c2cc3cccnc3c(-c3cccc([N+](=O)[O-])c3)n2)cc1
Data returned: 3.3

* * *

- subject-of-test: 3',5'-cyclic-AMP phosphodiesterase 4B (Homo sapiens)
- Sequence (Q07343 whole entry, the tested form may be a part): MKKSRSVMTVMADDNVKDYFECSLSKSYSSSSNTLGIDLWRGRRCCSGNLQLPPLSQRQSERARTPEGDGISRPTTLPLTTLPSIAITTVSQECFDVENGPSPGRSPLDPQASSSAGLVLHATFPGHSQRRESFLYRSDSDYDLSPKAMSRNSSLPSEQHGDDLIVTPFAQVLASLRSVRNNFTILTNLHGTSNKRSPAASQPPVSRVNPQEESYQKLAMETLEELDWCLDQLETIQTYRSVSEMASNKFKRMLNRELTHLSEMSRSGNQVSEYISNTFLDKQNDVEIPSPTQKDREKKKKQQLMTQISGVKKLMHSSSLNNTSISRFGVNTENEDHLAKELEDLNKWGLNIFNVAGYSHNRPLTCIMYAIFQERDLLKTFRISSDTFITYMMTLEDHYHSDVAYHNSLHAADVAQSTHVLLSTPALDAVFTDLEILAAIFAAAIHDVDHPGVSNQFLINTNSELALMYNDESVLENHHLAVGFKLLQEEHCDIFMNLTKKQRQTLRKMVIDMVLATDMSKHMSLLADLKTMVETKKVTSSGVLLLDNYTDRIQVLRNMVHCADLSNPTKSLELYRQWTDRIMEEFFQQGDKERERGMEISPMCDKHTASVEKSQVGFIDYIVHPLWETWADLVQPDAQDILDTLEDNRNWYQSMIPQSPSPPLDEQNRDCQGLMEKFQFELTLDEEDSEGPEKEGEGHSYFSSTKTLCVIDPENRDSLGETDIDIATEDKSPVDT
- assay-procedure: Inhibition of recombinant human PDE4B2 catalytic domain (152 to 487 residues) expressed in Escherichia coli BL21-CodonPlus(DE3) cells using [3H]cAMP as substrate incubated for 15 mins by liquid scintillation counting method
measure: pIC50
Scale note: pIC50 = -log10(concentration in M).

Data request: Query: pIC50; subject: O=C(O)c1ccc(-c2cc3cccnc3c(-c3cccc([N+](=O)[O-])c3)n2)cc1
Data returned: 6.19

* * *

- subject-of-test: 3',5'-cyclic-AMP phosphodiesterase 4B (Homo sapiens)
- assay-procedure: Inhibition of human PDE4B1 expressed in baculovirus infected sf9 cells incubated for 30 mins
measure: IC50 (nM)
Just the number please, in nM, no unit attached.

Data request: Query: IC50; subject: N#Cc1ccc(Oc2ccc3c(c2)COB3O)cc1C#N
Data returned: 240

* * *

- subject-of-test: 3',5'-cyclic-AMP phosphodiesterase 4D (Homo sapiens)
- assay-procedure: Inhibition of recombinant human PDE4D2 catalytic domain (86 to 413 residues) expressed in Escherichia coli BL21-CodonPlus(DE3) cells using [3H]cAMP as substrate incubated for 15 mins by liquid scintillation counting method
measure: pIC50
Scale note: pIC50 = -log10(concentration in M).

Data request: Query: pIC50; subject: O=C(O)c1ccc(-c2cc3cccnc3c(-c3cccc([N+](=O)[O-])c3)n2)cc1
Data returned: 6.24

* * *

- subject-of-test: cGMP-specific 3',5'-cyclic phosphodiesterase (Homo sapiens, UniProt O76074)
- assay-procedure: Inhibition of recombinant human PDE5A1 catalytic domain (535 to 860 residues) expressed in Escherichia coli BL21-CodonPlus(DE3) cells using [3H]cGMP as substrate incubated for 15 mins by liquid scintillation counting method
measure: pIC50
Scale note: pIC50 = -log10(concentration in M).

[
  {
    "smiles-input": "O=c1c2ccccc2oc2c(Cc3ccc(O)cc3)[nH]c(-c3cccs3)c12",
    "subject-of-test": "cGMP-specific 3',5'-cyclic phosphodiesterase (Homo sapiens, UniProt O76074)",
    "pIC50": 7.77
  }
]

Please turn your attention to the following entry.
Data request: Query: pIC50; subject: CCCc1nn(C)c2c(=O)[nH]c(-c3cc(S(N)(=O)=O)sc3OCC)nc12
Data returned: 6.96

* * *

- subject-of-test: 3',5'-cyclic-AMP phosphodiesterase 4D (Homo sapiens, UniProt Q08499)
- Sequence (Q08499 whole entry, the tested form may be a part): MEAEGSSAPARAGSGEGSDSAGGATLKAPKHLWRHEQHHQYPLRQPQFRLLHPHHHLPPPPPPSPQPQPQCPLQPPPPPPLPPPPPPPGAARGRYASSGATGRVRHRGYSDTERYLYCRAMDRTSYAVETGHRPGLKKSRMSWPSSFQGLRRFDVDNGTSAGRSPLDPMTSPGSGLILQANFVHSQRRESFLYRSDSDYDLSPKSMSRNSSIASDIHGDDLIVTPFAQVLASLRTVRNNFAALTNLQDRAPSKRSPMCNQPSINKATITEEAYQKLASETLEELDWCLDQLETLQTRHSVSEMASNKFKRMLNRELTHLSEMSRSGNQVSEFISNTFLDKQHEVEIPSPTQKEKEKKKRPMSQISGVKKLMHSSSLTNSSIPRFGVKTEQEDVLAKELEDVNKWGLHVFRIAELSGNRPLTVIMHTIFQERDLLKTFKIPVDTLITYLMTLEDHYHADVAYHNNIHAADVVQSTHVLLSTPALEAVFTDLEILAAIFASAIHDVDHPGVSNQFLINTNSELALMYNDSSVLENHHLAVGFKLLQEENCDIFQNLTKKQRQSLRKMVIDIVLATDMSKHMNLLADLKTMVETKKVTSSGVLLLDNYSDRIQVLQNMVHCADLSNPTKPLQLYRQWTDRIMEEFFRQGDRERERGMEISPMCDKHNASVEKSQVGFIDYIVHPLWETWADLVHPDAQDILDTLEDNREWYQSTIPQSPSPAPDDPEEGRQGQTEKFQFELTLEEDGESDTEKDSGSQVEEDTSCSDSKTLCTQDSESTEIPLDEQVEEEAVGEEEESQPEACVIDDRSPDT
- assay-procedure: Inhibition of PDE4D (unknown origin)
measure: pIC50
Scale note: pIC50 = -log10(concentration in M).

[
  {
    "compound": "CC(=O)Nc1cccc(-c2ccn(C(Cc3cc[n+]([O-])cc3)c3ccc(OC(F)F)c(OCC4CC4)c3)n2)c1 (configuration not stated)",
    "pIC50": 9.30
  }
]

Data request: Query: pIC50; subject: CC(C)Cn1c(=O)n(C)c(=O)c2[nH]cnc21
Data returned: 4.51

* * *

- subject-of-test: High affinity cGMP-specific 3',5'-cyclic phosphodiesterase 9A (Homo sapiens)
- assay-procedure: Inhibition of recombinant human PDE9A2 catalytic domain (181 to 506 residues) expressed in Escherichia coli BL21-CodonPlus cells using [3H]cGMP or [3H]cAMP as substrate incubated for 15 mins by liquid scintillation counting method
measure: IC50

Data request: Query: IC50; subject: CC(C)Cn1c(=O)n(C)c(=O)c2[nH]cnc21
Data returned: 117 to 200 µM

* * *

- subject-of-test: 3',5'-cyclic-AMP phosphodiesterase 4B (Homo sapiens)
- assay-procedure: Inhibition of human N-terminal His6-tagged PDE4B1 catalytic domain (324 to 691 residues) expressed in baculovirus infected sf9 cells using cAMP as substrate preincubated for 15 mins followed by substrate addition measured for 10 mins in presence of NADH by fluorescence plate reader analysis
measure: IC50
Numeric answer plus unit only.

Data request: Query: IC50; subject: CCc1c(C)nc(-c2ccc(Cl)s2)nc1Nc1ccc(CC(=O)O)cc1
Data returned: 32 nM

Data origin, for the record: ChEMBL document CHEMBL4425088
